target: E-selectin (Homo sapiens) (UniProt P16581); assay: inducers of endothelial E-selectin expression – imaging, HUVEC, immunofluorescence imaging, single point, primary screen (AID 686992); conditions: at 7.58 µM, active compounds read high, normalized: neutral wells 0, TNF-alpha wells 100;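 note: signal is the percent of cells scored E-selectin positive by PE staining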
Sequence (P16581 whole entry, looked up): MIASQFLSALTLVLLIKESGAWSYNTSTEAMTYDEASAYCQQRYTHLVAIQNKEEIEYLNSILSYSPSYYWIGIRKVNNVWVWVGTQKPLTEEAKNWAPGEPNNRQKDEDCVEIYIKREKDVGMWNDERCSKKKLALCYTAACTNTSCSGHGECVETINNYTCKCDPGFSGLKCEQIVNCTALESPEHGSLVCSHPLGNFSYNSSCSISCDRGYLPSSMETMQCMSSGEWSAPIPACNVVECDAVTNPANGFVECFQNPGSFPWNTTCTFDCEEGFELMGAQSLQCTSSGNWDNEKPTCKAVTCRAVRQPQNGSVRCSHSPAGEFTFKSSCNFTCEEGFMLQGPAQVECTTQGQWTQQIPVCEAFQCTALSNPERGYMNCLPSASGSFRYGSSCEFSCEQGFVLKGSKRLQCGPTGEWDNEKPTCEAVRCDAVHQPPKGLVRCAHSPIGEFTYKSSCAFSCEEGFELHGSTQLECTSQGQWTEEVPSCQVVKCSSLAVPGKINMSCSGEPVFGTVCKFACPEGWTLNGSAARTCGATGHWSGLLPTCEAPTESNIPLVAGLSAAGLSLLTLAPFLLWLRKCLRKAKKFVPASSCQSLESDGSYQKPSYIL
The campaign covered roughly 260,000 compounds. About 960 (0.37%) were called active. The sample as a whole holds a higher share of actives than the screen did.
Measurement Name: activation (%)
Kindly provide the numeric value in % only, without the unit symbol.

Solved entries:
# Compound, Measurement Name, Unit Info, Readout Value
data = [
    ("COC(=O)C(C)NC(=O)COc1ccc2ccccc2c1 (stereo not given)", "activation", "%", 0.228),
    ("CC(C)NC(=O)N(C)C[C@@H]1Oc2c(NC(=O)c3cnccn3)cccc2C(=O)N([C@@H](C)CO)C[C@@H]1C", "activation", "%", 88.4),
    ("C[C@H]1CN([C@@H](C)CO)C(=O)Cc2cc(NS(C)(=O)=O)ccc2O[C@@H]1CN(C)S(=O)(=O)c1cccs1", "activation", "%", -0.124),
    ("C[C@@H]1CN([C@H](C)CO)C(=O)c2cc(NC(=O)Nc3ccc4c(c3)OCO4)ccc2O[C@@H]1CN(C)Cc1ccc(C(F)(F)F)cc1", "activation", "%", 0.0795),
    ("C[C@H]1CN([C@@H](C)CO)C(=O)Cc2cc(NC(=O)C3CC3)ccc2O[C@@H]1CN(C)S(=O)(=O)c1cccs1", "activation", "%", 55.7),
]

Exercise: Param request: activation | system E-selectin (Homo sapiens) (UniProt P16581) | item "CCOC(=O)C(=Cc1ccccc1)C(=O)c1ccccc1"
Key: -0.023

Exercise: Param request: activation | system E-selectin (Homo sapiens) (UniProt P16581) | item "C[C@H](CO)N1C[C@H](C)[C@@H](CN(C)Cc2ccc(C(F)(F)F)cc2)Oc2ccc(NC(=O)CCN3CCOCC3)cc2C1=O"
Key: 3.76

Exercise: Param request: activation | system E-selectin (Homo sapiens) (UniProt P16581) | item "C[C@@H]1CN([C@@H](C)CO)C(=O)Cc2cc(NC(=O)C3CC3)ccc2O[C@@H]1CN(C)S(C)(=O)=O"
Key: -0.338

Exercise: Param request: activation | system E-selectin (Homo sapiens) (UniProt P16581) | item "C[C@@H]1CN([C@@H](C)CO)C(=O)Cc2cc(NC(=O)Nc3ccc(C(F)(F)F)cc3)ccc2O[C@H]1CN(C)C(=O)Nc1ccc(F)cc1"
Key: -0.224

Exercise: Param request: activation | system E-selectin (Homo sapiens) (UniProt P16581) | item "CC(C)NC(=O)N(C)C[C@H]1Oc2ccc(NC(=O)CCC(F)(F)F)cc2CC(=O)N([C@@H](C)CO)C[C@@H]1C"
Key: 50.4

----------
target: E-selectin (Homo sapiens) (UniProt P16581); experiment: inducers of endothelial E-selectin expression – imaging, HUVEC, immunofluorescence imaging, single point, primary screen (AID 686992); settings: at 7.58 µM, normalized: neutral wells 0, TNF-alpha wells 100;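 note: signal is the percent of cells scored E-selectin positive by PE staining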
Hit rate of the full screen: of about 260,000 compounds, about 960 (0.37%) were called active.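 How the source made its calls: active means mean E-selectin-positive cell signal at least 10% of the positive control, reached in at least 60% of replicates, without over 20% cell loss; inconclusive means no rule given, readout overlaps actives, possibly toxicity-flagged; inactive means the rest, including those meeting only one limit.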 The full list was thinned out, with actives kept by preference.
Select the matching outcome among true = active, false = inactive

Exercise: Name the outcome recorded for CCOC(=O)[C@H]1Nc2ccc(Cl)cc2[C@@H]2[C@H]1C1CC(c3ccccc31)N2C(=O)OCc1ccccc1 (some centres not stated) in the assay.
Key: false

----------
molecular target: E-selectin (Homo sapiens) (UniProt P16581); assay: inducers of endothelial E-selectin expression – imaging, HUVEC, immunofluorescence imaging, single point, primary screen (AID 686992); conditions: at 7.58 µM, normalized: neutral wells 0, TNF-alpha wells 100;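 note: signal is the percent of cells scored E-selectin positive by PE staining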
The whole screen tested about 260,000 compounds, of which about 960 (0.37%) were called active.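 The calls were made as follows: active = mean E-selectin-positive cell signal at least 10% of the positive control, reached in at least 60% of replicates, without over 20% cell loss; inconclusive = no rule given, readout overlaps actives, possibly toxicity-flagged; inactive = the rest, including those meeting only one limit.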 The sample holds actives, similar compounds and a random draw of the others, so the mix is not that of the screen.
Select the matching outcome among yes (active), no (inactive)

Look over these answered cases.
# Compound, Assigned Category
records = [
    ("COc1cc(OC)cc(-c2cc3ccc(F)cc3cn2)c1", "no"),
    ("CN(Cc1cccc2ncccc12)C(=O)CC1C(=O)NCCN1Cc1ccc(F)cc1 (stereo unspecified)", "yes"),
    ("Cc1c(CC(=O)NCC(=O)NCC(=O)O)c(=O)oc2cc3oc4c(c3cc12)CCCC4", "yes"),
    ("Cc1ccc(Nc2nnc(SC(C)C(=O)NC3CC3)s2)cc1 (stereo unspecified)", "no"),
]

Exercise: Name the outcome recorded for "Cc1ccc(C(=O)N2CCCc3ccccc32)c(Cl)c1" in the assay.
Key: no

Exercise: Name the outcome recorded for COc1ccc(CCN2C(=O)N(c3ccc(OC)cc3)C(=O)C2CC(=O)Nc2ccc(OC)cc2)cc1 (stereo unspecified) in the assay.
Key: no

----------
molecular target: E-selectin (Homo sapiens); test: inducers of endothelial E-selectin expression – imaging, HUVEC, immunofluorescence imaging, single point, primary screen (AID 686992); conditions: at 7.58 µM, active compounds read high, normalized: neutral wells 0, TNF-alpha wells 100;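 note: signal is the percent of cells scored E-selectin positive by PE staining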
About 960 (0.37%) of roughly 260,000 compounds were called active. The list comes from a sample in which actives are over-represented; it also holds close analogues and randomly drawn compounds.
Measurement Name: activation (%)
Kindly provide the numeric value in % only, without the unit symbol.

Solved entries:
# Molecule, Unit Info, activation
measured = [
    ("CCC(=O)N1CC2(C1)[C@H](c1ccc(-c3ccc(C)cc3)cc1)[C@H](CO)N2S(C)(=O)=O", "%", -0.277),
    ("Cc1nc(CN(C)C(=O)CC2C(=O)NCCN2Cc2ccc(F)cc2)cs1 (stereo not given)", "%", -0.598),
    ("CCOC(=O)C1CSCCS(=O)(=O)N1Cc1ccc(Cl)cc1 (stereo not given)", "%", 0.0275),
    ("CCCCNC(=O)c1ccccc1NC(=O)C1=C(C)OCCS1", "%", 0.108),
]

Here's the next entry for you.
Exercise: Respond only with activation recorded for "N#C[C@@H]1[C@@H](c2ccccc2)[C@H](CO)N1C(=O)c1cc(Cl)cc(Cl)c1"
Key: 0.0965
